- Test system: MERTK
- measurement context: concentration: 1 μM,replicates: in singlicate; n = 1;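 note: KINOMEscan kinase panel screen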
experimental endpoint: %Inh (%)

1) Cn1ccc2ncnc(Oc3ccc(NC(=O)Nc4cnn(C(C)(C)C)c4)c(Cl)c3)c21: 65
2) C[C@@H](Oc1cc(-n2cnc3cc(-c4cnn(C)c4)ccc32)sc1C(N)=O)c1ccccc1Cl [GSK580432]: 100
3) Cc1cccc(-c2nc(Nc3ccncc3)c3sccc3n2)n1 [GW869641]: 0
4) COC(=O)c1cccc(NC(=O)NC2CCN(c3ccnc(Nc4cc(OC)c(OC)c(OC)c4)n3)C2)c1 (stereo not shown) [GSK1379767]: 40

* * *

- Test system: TNNI3K
- measurement context: concentration: 1 μM,replicates: in singlicate; n = 1
Classify: MET when %Inh is strictly less than 10%; NOT MET when %Inh is not.

1. Cn1cc(-c2cccc3c(N)c(C(N)=O)nnc23)cn1: MET
2. CCNCC(Cc1ccccc1)NC(=O)c1cc(Br)c(-c2ccnc3[nH]ccc23)s1.Cl.Cl (centres unmarked): NOT MET
3. C[C@@H](Oc1cc(-n2cnc3ccc(-c4ccncc4)cc32)sc1C(N)=O)c1ccccc1Cl: MET
4. C[C@@H]1CCN(C(=O)N2CCCC2)C[C@@H]1N(C)c1ncnc2[nH]ccc12: NOT MET
5. CCn1c(-c2nonc2N)nc2cncc(Br)c21: MET

* * *

- Test system: RIPK2
- measurement context: concentration: 1 μM,replicates: in singlicate; n = 1
Classify: rule met when %Inh is strictly less than 10%; rule not met when %Inh is not.

1. NC(=O)Nc1sc(-c2ccc(F)cc2)cc1C(N)=O [GW789449]: rule met
2. Cc1ccc2c(-c3ccnc(Nc4ccc(C(F)(F)F)cc4)n3)cnn2n1 [GW819776]: rule not met
3. COC(=O)c1cccc(NC(=O)NC2CCN(c3ccnc(Nc4cc(OC)c(OC)c(OC)c4)n3)C2)c1 (centres unmarked) [GSK1379767]: rule not met
4. Cc1cccc2c(-c3ccncc3)c(-c3ccc(F)cc3)nn12.Cl [GW461487]: rule not met
5. Cl.Cl.NC[C@H](CC1CCCCC1)NC(=O)c1ccc(-c2ccnc3[nH]ccc23)s1 [GSK1581428]: rule met
6. Cc1ccc(Nc2ccnc(Nc3ccc4c(c3)CS(=O)(=O)C4)n2)cc1O.Cl [GW579362]: rule not met
7. Cc1ccc(C(=O)Nc2ccc(Oc3ccc4nc(NC(=O)C5CC5)cn4c3)c(F)c2)c(=O)n1-c1ccccc1: rule not met
8. Cn1ccc2ncnc(Oc3ccc(NC(=O)Nc4cc(C(C)(C)C)on4)c(Cl)c3)c21: rule not met

* * *

- Tested on: DCAMKL1
- Construct: gene DCLK1
- measurement context: concentration: 1 μM,replicates: in singlicate; n = 1
Classification field: label 1 = %Inh at or over 20%; label 0 = %Inh under 20%.

1) CN1CCN(CCNc2nc3cc(Oc4ccc(NC(=O)Nc5cc(C(F)(F)F)ccc5F)cc4)ccc3[nH]2)CC1.Cl.Cl: label 1
2) COc1ccc(Nc2nccc(N3CCC(NC(=O)c4cccc(C#N)c4)C3)n2)cc1 (centres unmarked): label 0
3) Cn1ccc2ncnc(Oc3ccc(NC(=O)Nc4cnn(C(C)(C)C)c4)c(Cl)c3)c21: label 0
4) CN(c1cccc(CNc2nc(Nc3ccc4c(c3)CC(=O)N4)ncc2C(F)(F)F)c1)S(C)(=O)=O: label 1
5) FC(F)(F)c1cc(Br)cc(Nc2nccc(-c3cnn4ncccc34)n2)c1: label 0
6) Cn1ccc2ncnc(Oc3ccc(NC(=O)Nc4cncc(C(F)(F)F)c4)c(Cl)c3)c21: label 0
7) COC(=O)c1cccc(NC(=O)NC2CCN(c3ccnc(NCc4ccc(F)cc4)n3)CC2)c1: label 0
8) CCn1c(-c2nonc2N)nc2cncc(Br)c21: label 0

* * *

- System: MST1R
- measurement context: concentration: 1 μM,replicates: in singlicate; n = 1
Parameter %Inh: see the listing below.
experimental endpoint: %Inh (%)

1. CC(C(=O)NC1CCN(c2ccnc(Nc3ccc(F)cc3)n2)C1)c1ccc(Cl)cc1 (stereo not drawn): 0
2. CN1CCN(CCNc2nc3cc(Oc4ccc(NC(=O)Nc5cc(C(F)(F)F)ccc5F)cc4)ccc3[nH]2)CC1.Cl.Cl: 0
3. Cn1ccc2ncnc(Oc3ccc(NC(=O)Nc4cnn(C(C)(C)C)c4)c(Cl)c3)c21: 10
4. CCn1c(-c2nonc2N)nc2cncc(Br)c21: 19
5. Cn1ccc2ncnc(Oc3ccc(NC(=O)Nc4ccnc(C(F)(F)F)c4)c(Cl)c3)c21: 32
6. Nc1nccc(-c2ccc3c(N)n[nH]c3c2)n1: 27
7. Cn1ccc2ncnc(Oc3ccc(NC(=O)Nc4cccc(C(F)(F)F)c4)c(F)c3)c21: 19
8. CCCC(=O)Nc1n[nH]c2ncccc12: 12
9. C[C@@H](Oc1cc(-n2cnc3ccc(-c4ccncc4)cc32)sc1C(N)=O)c1ccccc1Cl: 44
10. O=C(NOCC1CC1)c1cc(Br)c(F)c(F)c1Nc1ccc(I)cc1Cl: 31
11. CSc1nccc(-c2c(-c3ccc(F)cc3)ncn2CCCN2CCOCC2)n1.Cl: 0
12. Cn1ccc2ncnc(Oc3ccc(NC(=O)Nc4cccc(C(F)(F)F)c4)c(Cl)c3)c21: 33
13. O=C(Nc1n[nH]c2cc(-c3ccco3)ccc12)C1CC1: 0
14. CCn1c(-c2nonc2N)nc2cncc(CNC3CCNCC3)c21.Cl: 31
15. Cn1ccc2ncnc(Oc3ccc(NC(=O)Nc4cncc(C(F)(F)F)c4)c(Cl)c3)c21: 0
16. Cc1cccc2c(-c3ccncc3)c(-c3ccc(F)cc3)nn12.Cl: 44
17. c1ccc(Oc2ccc(Nc3ccnc4ccc(-c5ccccn5)cc34)cc2)cc1: 0
18. CNC(=O)c1ccccc1Nc1nc(Nc2cccc(CS(C)(=O)=O)c2)ncc1C.O=CO: 93.4

* * *

- Tested on: PLK3
- measurement context: concentration: 1 μM,replicates: in singlicate; n = 1
experimental endpoint: %Inh (%)

1) CC(C)c1nc(-c2cccc(NS(=O)(=O)c3ccccc3)c2)c(-c2ccnc(Nc3ccc4c(c3)CN(C)CC4)n2)s1: 0
2) O=C(Nc1ccccc1)c1cccc(Oc2ccc3nccn3n2)c1: 0
3) Cn1ccc2ncnc(Oc3ccc(NC(=O)Nc4cccc(C(F)(F)F)c4)c(Cl)c3)c21: 22
4) CNC(=O)c1ccccc1Nc1nc(Nc2cccc(CS(C)(=O)=O)c2)ncc1C.O=CO: 17

* * *

- Tested on: PRKCD
- measurement context: concentration: 1 μM,replicates: in singlicate; n = 1
experimental endpoint: %Inh (%)

1. c1ccc(Oc2ccc(Nc3ccnc4ccc(-c5ccccn5)cc34)cc2)cc1: 0
2. O=C1NCCc2[nH]c(-c3ccncc3)cc21: 27
3. COc1ccc(Nc2nccc(N3CCC(NC(=O)c4cccc(C#N)c4)C3)n2)cc1 (stereo not drawn): 8
4. CC(=O)c1c(-c2ccncc2)[nH]c(-c2ccncc2)c1C: 0
5. Cc1cccc2c(-c3ccncc3)c(-c3ccc(F)cc3)nn12.Cl: 3
6. Cc1nnc(-c2ccc3occ(-c4ccc(S(C)=O)cc4)c3n2)o1 (stereo not drawn): 0
7. Cc1ccc2c(-c3ccnc(Nc4ccc(C(F)(F)F)cc4)n3)cnn2n1: 5
8. CC(=O)Nc1nc2cnc(Nc3cc(NC(=O)c4cccc(CC(C)(C)C#N)c4)ccc3C)nc2s1: 13
9. O=C(Nc1ccc(Oc2ccc3nc(NC(=O)C4CC4)cn3n2)c(F)c1)c1cccn(-c2ccccc2)c1=O: 0
10. Cn1ccc2ncnc(Oc3ccc(NC(=O)Nc4cccc(C(F)(F)F)c4)c(F)c3)c21: 0
11. COC(=O)c1cccc(NC(=O)NC2CCN(c3ccnc(Nc4cc(OC)c(OC)c(OC)c4)n3)C2)c1 (stereo not drawn): 0
12. COc1cc(Nc2nccc(N3CCC(NC(=O)c4cccc(C#N)c4)C3)n2)cc(OC)c1OC (stereo not drawn): 0
13. CN(c1ccccc1CNc1nc(Nc2ccc3c(c2)CC(=O)N3)ncc1C(F)(F)F)S(C)(=O)=O: 73
14. FC(F)(F)c1cc(Br)cc(Nc2nccc(-c3cnn4ncccc34)n2)c1: 16
15. COc1cccc(C2=C(Nc3cccc(Cl)c3)C(=O)NC2=O)c1: 26
16. Cc1ccn2nc(-c3ccc(F)cc3)c(-c3ccncc3)c2c1.Cl: 0
17. O=C(Nc1cccc(Oc2ccc3nccn3n2)c1)Nc1cccc(C(F)(F)F)c1: 10
18. COC(=O)c1cccc(NC(=O)NC2CCN(c3ccnc(NCc4ccc(F)cc4)n3)CC2)c1: 0

* * *

- System: CAMK1B
- measurement context: concentration: 1 μM,replicates: in singlicate; n = 1
experimental endpoint: %Inh

1. Cc1ccn2nc(-c3ccc(F)cc3)c(-c3ccncc3)c2c1.Cl: 30%
2. CS(=O)(=O)Nc1ccc(-c2ccnc3[nH]ccc23)cc1: 27%
3. C[C@@H]1CNc2c(sc3ccc4nc(-c5ccncc5)ccc4c23)C(=O)N1: 0%
4. CCCC(=O)Nc1n[nH]c2ncccc12: 0%
5. C[C@@H](Oc1cc(-n2cnc3cc(-c4ccncc4)ccc32)sc1C(N)=O)c1ccccc1Cl: 18%
